# target: Muscarinic acetylcholine receptor M1 (Homo sapiens, UniProt P11229); note: assay procedure not described here
# Sequence (P11229 whole entry): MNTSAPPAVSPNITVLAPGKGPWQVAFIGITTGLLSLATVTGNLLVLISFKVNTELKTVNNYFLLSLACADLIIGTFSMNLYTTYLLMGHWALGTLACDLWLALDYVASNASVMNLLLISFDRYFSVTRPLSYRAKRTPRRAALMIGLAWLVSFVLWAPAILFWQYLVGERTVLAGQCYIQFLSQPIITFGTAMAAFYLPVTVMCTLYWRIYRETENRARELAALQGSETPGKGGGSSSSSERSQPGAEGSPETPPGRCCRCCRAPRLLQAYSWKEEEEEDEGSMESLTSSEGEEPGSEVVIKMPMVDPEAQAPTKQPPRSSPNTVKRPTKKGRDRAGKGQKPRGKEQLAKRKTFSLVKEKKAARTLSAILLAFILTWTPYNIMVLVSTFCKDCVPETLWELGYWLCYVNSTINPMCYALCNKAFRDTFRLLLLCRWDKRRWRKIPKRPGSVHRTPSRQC
# Assay type: functional
readout.kind: AC50

Consider the reported AC50 for these molecules:
- COc1ccc(C(=O)NCc2ccc(OCCN(C)C)cc2)cc1OC [ITOPRIDE]: > 30 µM
- CN[C@@H](C)[C@H](O)c1ccccc1: > 10 µM

Item Nc1ccc(/N=N/c2ccccc2)c(N)n1 : provide AC50 4.1 µM

Give AC50 for OCc1cc([C@@H](O)CNCCCCCCOCCOCc2c(Cl)cccc2Cl)ccc1O > 30 µM

State its AC50: CN1CCc2cccc3c2[C@H]1Cc1ccc(O)c(O)c1-3 > 30 µM
